test: Determination of PFOA in blood plasma (UPLC-MS/MS); format: in vivo, Gallus gallus domesticus; settings: chicken, plasma, other: air sac injection in ovo, 50 μg/egg, E12; 50 μg PFOA/egg on E7; read-out: Mean PFOA concentration in plasma
measured-metric: concentration at 5 d (ng/mL)
The reply should contain only the number, in ng/mL.

## Task Entry `O=C(O)C(F)(F)C(F)(F)C(F)(F)C(F)(F)C(F)(F)C(F)(F)C(F)(F)F` has what concentration at 5 d?
## Result 2000

====

assay: Determination of PFOA in liver (UPLC-MS/MS); assay type: in vivo, Gallus gallus domesticus; settings: chicken (Gallus gallus domesticus) embryo, liver, other: air sac injection into the egg, 1000 µg/egg, PFOA 1000 µg/egg, chicken embryo liver, group mean (n=5); read-out: Concentration in liver, Mean
measured-metric: concentration at 5 days
The reply should read as a number followed by its unit.

## Task Endpoint output: concentration at 5 days of O=C(O)C(F)(F)C(F)(F)C(F)(F)C(F)(F)C(F)(F)C(F)(F)C(F)(F)F [PFOA, perfluorooctanoic acid] . Value?
## Result 10800 ng/g

Where do these numbers come from? They come from paper PMC4666608.
